- System: Cricetinae gen. sp.
- Measurement Protocol: The compound was evaluated for its ability to inhibit the human neutrophil elastase-induced lung hemorrhage in hamster by intravenous bolus administration of 30 mg/Kg dose
- Format: functional, Cricetulus griseus
Classify by measured inhibition in vivo at 30 mg/kg: true if it is equal to or exceeds 60%, false if it is smaller.

Use the examples below as a reference point.
CC(C)[C@H](NC(=O)[C@@H]1CCCN1C(=O)[C@@H](NC(=O)N[C@H](C)C(=O)O)C(C)C)C(=O)c1nc2ccccc2o1	false
CC(C)[C@H](NC(=O)[C@@H]1CCCN1C(=O)[C@@H](NC(=O)COc1ccc(OCC(=O)O)cc1)C(C)C)C(=O)c1nc2c(OC(=O)C(C)(C)C)cccc2o1	true
CC(C)[C@H](NC(=O)[C@H]1CCCN1C(=O)COc1ccc(OCC(=O)O)cc1)C(=O)c1nc2c(OC(=O)C(C)(C)C)cccc2o1	true

Shift focus to the following entry.
Reported inhibition in vivo at 30 mg/kg at or above 60%? CC(C)[C@H](NC(=O)COc1ccc(OCC(=O)O)cc1)C(=O)c1nc2c(OC(=O)C(C)(C)C)cccc2o1
false

###

- Assayed System: Neutrophil elastase (Homo sapiens)
- Measurement Protocol: In vitro inhibition of the human neutrophil elastase-catalyzed hydrolysis of the synthetic substrate Suc-Ala-Pro-Ala-MCA
Measurement Type: pIC50
Remember, pIC50 is on a log scale: it is -log10 of the molar concentration.

Reference set (5 entries):
CC(C)[C@H](NC(=O)[C@@H]1CCCN1C(=O)[C@@H](NC(=O)COc1ccc(SCC(C)(C)C(=O)O)cc1)C(C)C)C(=O)c1nc2ccccc2o1	8.46
CC(C)[C@H](NC(=O)COc1ccc(OCC(=O)O)cc1)C(=O)c1nc2c(OC(=O)C(C)(C)C)cccc2o1	6.89
CC(C)[C@H](NC(=O)[C@@H]1CCCN1C(=O)[C@@H](NC(=O)COC(=O)c1ccc(OCC(=O)O)cc1)C(C)C)C(=O)c1nc2ccccc2o1	7.89
CC(C)[C@H](NC(=O)[C@@H]1CCCN1C(=O)[C@@H](NC(=O)N[C@H](C)C(=O)O)C(C)C)C(=O)c1nc2ccccc2o1	6.55
CC(C)[C@H](NC(=O)[C@@H]1CCCN1C(=O)[C@@H](NC(=O)/C=C/C(=O)O)C(C)C)C(=O)c1nc2ccccc2o1	7.14

Shift focus to the following entry.
Query CC(C)[C@H](NC(=O)[C@@H]1CCCN1C(=O)[C@@H](NC(=O)CNC(=O)c1ccc(OCC(=O)O)cc1)C(C)C)C(=O)c1nc2ccccc2o1 yields pIC50 of 7.48

###

The entries below are paired with their reported inhibition in vivo at 30 mg/kg.
- Test system: Cricetinae gen. sp.
- Measurement Protocol: The compound was evaluated for its ability to inhibit the human neutrophil elastase-induced lung hemorrhage in hamster by intravenous bolus administration of 30 mg/Kg dose
- Format: functional, Cricetulus griseus
Just the number please, in %, no unit attached.

CC(C)[C@H](NC(=O)[C@@H]1CCCN1C(=O)[C@@H](NC(=O)c1ccc(OCC(=O)O)cc1)C(C)C)C(=O)c1nc2ccccc2o1	60

GET /values?item= CC(C)[C@H](NC(=O)[C@@H]1CCCN1C(=O)[C@@H](NC(=O)CCC(=O)O)C(C)C)C(=O)c1nc2ccccc2o1 &system= Cricetinae gen. sp. returns inhibition in vivo at 30 mg/kg: 61

GET /values?item= CC(C)[C@H](NC(=O)[C@@H]1CCCN1C(=O)[C@@H](NC(=O)COc1ccccc1OCC(=O)O)C(C)C)C(=O)c1nc2ccccc2o1 &system= Cricetinae gen. sp. returns inhibition in vivo at 30 mg/kg: 48

GET /values?item= CC(C)[C@H](NC(=O)[C@@H]1CCCN1C(=O)[C@H](NC(=O)COc1ccc(OCC(=O)O)cc1)C(C)C)C(=O)c1nc2ccccc2o1 &system= Cricetinae gen. sp. returns inhibition in vivo at 30 mg/kg: 56

GET /values?item= CC(C)CCOc1cccc2oc(C(=O)[C@@H](NC(=O)[C@H]3CCCN3C(=O)COc3ccc(OCC(=O)O)cc3)C(C)C)nc12 &system= Cricetinae gen. sp. returns inhibition in vivo at 30 mg/kg: -16

GET /values?item= CC(C)[C@H](NC(=O)[C@@H]1CCCN1C(=O)[C@@H](NC(=O)COC(=O)c1ccc(OCC(=O)O)cc1)C(C)C)C(=O)c1nc2ccccc2o1 &system= Cricetinae gen. sp. returns inhibition in vivo at 30 mg/kg: 75

###

The entries below are paired with their reported IC50.
- Assayed System: Neutrophil elastase (Homo sapiens)
- Measurement Protocol: In vitro inhibition of the human neutrophil elastase-catalyzed hydrolysis of the synthetic substrate Suc-Ala-Pro-Ala-MCA
Just the number please, in µM, no unit attached.

Reference set (7 entries):
CC(C)[C@H](NC(=O)OCc1ccccc1)C(=O)c1nc2c(OC(=O)C(C)(C)C)cccc2o1	0.45
CC(C)[C@H](NC(=O)[C@@H]1CCCN1C(=O)[C@@H](NC(=O)COc1ccc(OCC(=O)O)cc1)C(C)C)C(=O)c1nc2c(OC(=O)C(C)(C)C)cccc2o1	0.0089
CC(C)CCOc1cccc2oc(C(=O)[C@@H](NC(=O)[C@H]3CCCN3C(=O)COc3ccc(OCC(=O)O)cc3)C(C)C)nc12	0.29
CC(C)[C@H](NC(=O)[C@@H]1CCCN1C(=O)[C@@H](NC(=O)c1ccc(OCC(=O)O)cc1)C(C)C)C(=O)c1nc2ccccc2o1	0.0074
CC(C)[C@H](NC(=O)[C@@H]1CCCN1C(=O)[C@@H](NC(=O)COc1ccccc1OCC(=O)O)C(C)C)C(=O)c1nc2ccccc2o1	0.0072
CC(C)[C@H](NC(=O)[C@H]1CCCN1C(=O)COc1ccc(OCC(=O)O)cc1)C(=O)c1nc2c(OC(=O)C(C)(C)C)cccc2o1	0.23
CC(C)CCOc1cccc2oc(C(=O)[C@@H](NC(=O)OCc3ccccc3)C(C)C)nc12	7.8

Shift focus to the following entry.
GET /values?item= CC(C)[C@H](NC(=O)[C@@H]1CCCN1C(=O)[C@@H](NC(=O)CCC(=O)O)C(C)C)C(=O)c1nc2ccccc2o1 &system= Neutrophil elastase (Homo sapiens) returns IC50: 0.066

###

The entries below are paired with their reported IC50.
- Assayed System: Neutrophil elastase (Homo sapiens)
- Sequence (P08246 whole entry): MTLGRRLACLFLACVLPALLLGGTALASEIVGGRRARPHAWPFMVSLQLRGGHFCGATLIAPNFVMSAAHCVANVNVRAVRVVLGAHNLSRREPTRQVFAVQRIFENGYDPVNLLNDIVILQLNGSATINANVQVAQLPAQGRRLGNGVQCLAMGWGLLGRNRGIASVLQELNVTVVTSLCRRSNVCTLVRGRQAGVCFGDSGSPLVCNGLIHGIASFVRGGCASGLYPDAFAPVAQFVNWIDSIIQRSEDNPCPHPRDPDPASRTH
- Measurement Protocol: In vitro inhibition of the human neutrophil elastase-catalyzed hydrolysis of the synthetic substrate Suc-Ala-Pro-Ala-MCA

Reference set (2 entries):
CCCCCOc1cccc2oc(C(=O)[C@@H](NC(=O)OCc3ccccc3)C(C)C)nc12	> 10 µM
CC(C)[C@H](NC(=O)OCc1ccccc1)C(=O)c1nc2c(OCc3ccccc3)cccc2o1	> 10 µM

Query CC(C)[C@H](NC(=O)OCc1ccccc1)C(=O)c1nc2c(O)cccc2o1 yields IC50 of > 10 µM

Query COC(=O)COc1cccc2oc(C(=O)[C@@H](NC(=O)OCc3ccccc3)C(C)C)nc12 yields IC50 of > 10 µM

Query CC(C)[C@H](NC(=O)OCc1ccccc1)C(=O)c1nc2c(OCCN(C)C)cccc2o1 yields IC50 of > 10 µM

Query CC(C)[C@H](NC(=O)OCc1ccccc1)C(=O)c1nc2c(OCC(=O)O)cccc2o1 yields IC50 of > 10 µM

Query CCOc1cccc2oc(C(=O)[C@@H](NC(=O)OCc3ccccc3)C(C)C)nc12 yields IC50 of > 10 µM

Query CCCCC(Oc1cccc2oc(C(=O)[C@@H](NC(=O)OCc3ccccc3)C(C)C)nc12)c1ccccc1 (some centres not stated) yields IC50 of > 10 µM

Query CC(C)[C@H](NC(=O)OCc1ccccc1)C(=O)c1nc2ccccc2o1 yields IC50 of > 10 µM

Query CC(C)[C@H](NC(=O)OCc1ccccc1)C(=O)c1nc2c(OCC(N)=O)cccc2o1 yields IC50 of > 10 µM

Query CC(C)[C@H](NC(=O)OCc1ccccc1)C(=O)c1nc2c(OCc3cccc(C(F)(F)F)c3)cccc2o1 yields IC50 of > 10 µM

Query CC(C)=CCOc1cccc2oc(C(=O)[C@@H](NC(=O)OCc3ccccc3)C(C)C)nc12 yields IC50 of > 10 µM
